Origin of the recorded values: patent US6706266

- System name: T1, gp130-Fc fusion protein (human, UniProt P40189 23-619)
- T1 construct: extracellular domain; not shown: Fc fragment of human IgG1
- T1 sequence (looked up): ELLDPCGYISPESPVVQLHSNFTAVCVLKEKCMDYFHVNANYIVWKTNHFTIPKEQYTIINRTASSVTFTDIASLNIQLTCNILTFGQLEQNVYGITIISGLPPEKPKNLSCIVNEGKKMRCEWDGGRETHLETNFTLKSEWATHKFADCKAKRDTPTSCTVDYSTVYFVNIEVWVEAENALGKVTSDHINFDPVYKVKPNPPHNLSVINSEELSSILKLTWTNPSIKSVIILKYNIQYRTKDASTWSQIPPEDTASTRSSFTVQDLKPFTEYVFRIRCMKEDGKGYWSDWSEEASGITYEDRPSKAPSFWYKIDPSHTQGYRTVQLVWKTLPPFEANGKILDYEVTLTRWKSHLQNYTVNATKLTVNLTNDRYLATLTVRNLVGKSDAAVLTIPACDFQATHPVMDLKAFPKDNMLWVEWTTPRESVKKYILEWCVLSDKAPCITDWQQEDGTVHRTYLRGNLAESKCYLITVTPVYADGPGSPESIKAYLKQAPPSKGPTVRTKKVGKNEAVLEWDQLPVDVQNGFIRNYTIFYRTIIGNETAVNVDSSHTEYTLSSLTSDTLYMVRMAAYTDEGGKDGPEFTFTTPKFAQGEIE
- Protocol: competition ELISA: OSM-GST titrated against plate-bound wt OSM for gp130-Fc; mean
IC50: recorded values
Output spec: scalar in µg/mL, unitless text.

Use the examples below as a reference point.
{"Binder": "OSM-GST mutant R11A (ligand, not shown: a dimerising Fc or GST; large carriers; small tags and cut ends, Alanine mutant of m4; also called (5)R11A; 5 R11A) AAIGSCSKEYAVLLGQLQKQTDLMQDTSRLLDPYIRIQGLDVPKLREHCRERPGAFPSEETLRGLGRRGFLQTLNATLGCVLHRLADLEQRLPKAQDLERSGLNIEDLEKLQMARPNILGLRNNIYCMAQLLDNSDTAEPTKAGRGASQPPTPTPASDAFQRKLEGCRFLHGYHRFMHSVGRVFSKWGESPNRSRR", "IC50, µg/mL": 0.239}
{"Binder": "wild type OSM-GST fusion (ligand, pGEX-derived fusion; also called wt OSM-GST; GST-hOSM; not shown: glutathione S-transferase (GST) encoded by modified pGEX-3X (Pharmacia), N-terminal, up to the Factor Xa site region sho) AAIGSCSKEYRVLLGQLQKQTDLMQDTSRLLDPYIRIQGLDVPKLREHCRERPGAFPSEETLRGLGRRGFLQTLNATLGCVLHRLADLEQRLPKAQDLERSGLNIEDLEKLQMARPNILGLRNNIYCMAQLLDNSDTAEPTKAGRGASQPPTPTPASDAFQRKLEGCRFLHGYHRFMHSVGRVFSKWGESPNRSRR", "IC50, µg/mL": 0.139}
{"Binder": "OSM-GST mutant K19A (ligand, Alanine mutant of m4; also called (12)K19A; 12 K19A; not shown: Its linker is left out) AAIGSCSKEYRVLLGQLQAQTDLMQDTSRLLDPYIRIQGLDVPKLREHCRERPGAFPSEETLRGLGRRGFLQTLNATLGCVLHRLADLEQRLPKAQDLERSGLNIEDLEKLQMARPNILGLRNNIYCMAQLLDNSDTAEPTKAGRGASQPPTPTPASDAFQRKLEGCRFLHGYHRFMHSVGRVFSKWGESPNRSRR", "IC50, µg/mL": 0.116}
{"Binder": "OSM-GST mutant M113A (ligand, not shown: a dimerising Fc or GST; large carriers; small tags and cut ends, Alanine mutant of m4; also called (16)M113; 16 M113A) AAIGSCSKEYRVLLGQLQKQTDLMQDTSRLLDPYIRIQGLDVPKLREHCRERPGAFPSEETLRGLGRRGFLQTLNATLGCVLHRLADLEQRLPKAQDLERSGLNIEDLEKLQAARPNILGLRNNIYCMAQLLDNSDTAEPTKAGRGASQPPTPTPASDAFQRKLEGCRFLHGYHRFMHSVGRVFSKWGESPNRSRR", "IC50, µg/mL": 0.321}
{"Binder": "OSM-GST mutant L17A (ligand, Alanine mutant of m4; also called (10)L17A; 10 L17A; not shown: Its linker is left out) AAIGSCSKEYRVLLGQAQKQTDLMQDTSRLLDPYIRIQGLDVPKLREHCRERPGAFPSEETLRGLGRRGFLQTLNATLGCVLHRLADLEQRLPKAQDLERSGLNIEDLEKLQMARPNILGLRNNIYCMAQLLDNSDTAEPTKAGRGASQPPTPTPASDAFQRKLEGCRFLHGYHRFMHSVGRVFSKWGESPNRSRR", "IC50, µg/mL": 1.82}

Shifting focus to the binder that follows.
Ask | Param item = OSM-GST mutant Q20A (ligand, Alanine mutant of m4; also called (13)Q20A; 13 Q20A; not shown: Its linker is left out) AAIGSCSKEYRVLLGQLQKATDLMQDTSRLLDPYIRIQGLDVPKLREHCRERPGAFPSEETLRGLGRRGFLQTLNATLGCVLHRLADLEQRLPKAQDLERSGLNIEDLEKLQMARPNILGLRNNIYCMAQLLDNSDTAEPTKAGRGASQPPTPTPASDAFQRKLEGCRFLHGYHRFMHSVGRVFSKWGESPNRSRR ; retrieve measured IC50.
Reply | 5
